Kindly state IC50 for each of the entries shown.
Target: Aurora kinase A (Homo sapiens)
Sequence (O14965 whole entry): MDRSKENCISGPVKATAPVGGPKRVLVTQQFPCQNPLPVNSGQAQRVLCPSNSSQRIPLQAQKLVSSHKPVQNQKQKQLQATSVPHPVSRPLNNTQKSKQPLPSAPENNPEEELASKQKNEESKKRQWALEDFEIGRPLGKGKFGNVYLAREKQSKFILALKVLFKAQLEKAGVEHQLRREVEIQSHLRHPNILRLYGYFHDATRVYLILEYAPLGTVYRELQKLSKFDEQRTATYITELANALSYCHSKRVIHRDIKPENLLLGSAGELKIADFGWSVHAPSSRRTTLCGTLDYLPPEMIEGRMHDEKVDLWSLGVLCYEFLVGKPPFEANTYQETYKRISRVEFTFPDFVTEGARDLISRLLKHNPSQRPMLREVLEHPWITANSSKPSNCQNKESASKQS
Write the quantity with the unit trailing the number.

// IC50 value for CCc1c[nH]c2ncc(-c3cccc(N4CCCN(CCN5CC(c6ccc7c(c6)CN(C6CCC(=O)NC6=O)C7=O)C5)C4=O)c3)c(Cl)c12 (configuration not stated) : 10.1 nM

Noted for CCc1c[nH]c2ncc(-c3cccc(N4CCCN(CCN5CC(c6ccc7c(c6)C(=O)N(C6CCC(=O)NC6=O)C7)C5)C4=O)c3)c(Cl)c12 (configuration not stated) : its IC50 reads 14.3 nM

----------
Biological target: Mitogen-activated protein kinase kinase kinase kinase 1 (Homo sapiens, UniProt Q92918)
Sequence (Q92918 whole entry): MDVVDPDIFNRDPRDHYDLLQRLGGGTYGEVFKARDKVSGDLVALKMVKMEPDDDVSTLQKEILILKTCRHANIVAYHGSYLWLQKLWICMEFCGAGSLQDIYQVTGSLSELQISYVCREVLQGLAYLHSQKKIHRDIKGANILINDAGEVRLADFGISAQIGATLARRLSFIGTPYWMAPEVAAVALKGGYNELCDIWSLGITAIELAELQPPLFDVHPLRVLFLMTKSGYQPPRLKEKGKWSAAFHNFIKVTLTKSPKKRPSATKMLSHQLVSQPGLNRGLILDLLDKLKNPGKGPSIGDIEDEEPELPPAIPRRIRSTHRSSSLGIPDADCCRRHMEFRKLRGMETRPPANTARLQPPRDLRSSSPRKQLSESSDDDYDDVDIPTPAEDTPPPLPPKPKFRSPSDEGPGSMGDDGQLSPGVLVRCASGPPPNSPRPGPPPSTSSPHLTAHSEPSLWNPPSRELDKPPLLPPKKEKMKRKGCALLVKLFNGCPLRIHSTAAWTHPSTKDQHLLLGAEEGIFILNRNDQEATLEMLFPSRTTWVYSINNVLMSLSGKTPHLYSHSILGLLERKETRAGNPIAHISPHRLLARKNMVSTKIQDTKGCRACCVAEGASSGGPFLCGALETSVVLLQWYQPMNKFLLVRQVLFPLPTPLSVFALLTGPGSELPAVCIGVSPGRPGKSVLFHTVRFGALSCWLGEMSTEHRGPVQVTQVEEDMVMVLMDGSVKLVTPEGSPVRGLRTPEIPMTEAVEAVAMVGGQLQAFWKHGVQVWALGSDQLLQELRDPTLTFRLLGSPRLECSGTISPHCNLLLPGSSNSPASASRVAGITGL
Assay: HPK1 Enzyme Inhibition Assay
Description: The compound was dissolved in 100% DMSO at the concentration of 10 mM. The HPK1 protein was purchased from Signal Chem (M23-11G-10). 2.5 μL per well of 2×HPK1 protein was added to assay plate containing the test compound, centrifuged at 1500 rpm for 1 minute, and then incubated at 25° C. for 60 minutes. MBP protein was purchased from Signal Chem (M42-51N) and ATP was purchased from Promega (V9102). […] After 40 minutes incubation, the […] was determined.
Give measured pIC50 for each item. Keep answers brief.
pIC50 (log units): -log10 of the concentration in mol/L.

Hey, Mitogen-activated protein kinase kinase kinase kinase 1 (Homo sapiens, UniProt Q92918) data for CCc1c[nH]c2ncc(-c3cccc(N4CCCN(CCN5CC(c6ccc7c(c6)CN(C6CCC(=O)NC6=O)C7=O)C5)C4=O)c3)c(Cl)c12 (configuration not stated) : pIC50 came out at 8.96

Param item: CCc1c[nH]c2ncc(-c3cccc(N4CCCN(CCN5CC(c6ccc7c(c6)C(=O)N(C6CCC(=O)NC6=O)C7)C5)C4=O)c3)c(Cl)c12 (configuration not stated) [US20250368640, Example 1] ; param system: Mitogen-activated protein kinase kinase kinase kinase 1 (Homo sapiens, UniProt Q92918); output pIC50: 9.12

Hello, the source for this data is BindingDB's records for patent US20250368640, in case you need it.
